biological target: ACE (EC 3.4.15.1; from rabbit lung) (Oryctolagus cuniculus, UniProt P12822); construct: The ACE (EC 3.4.15.1; from rabbit lung, Sigma, A6778); purchased Sigma A6778; host or cells: rabbit lung tissue; experiment: ACE inhibitory activity (HHL substrate, spectrophotometric); type: biochemical; settings: synthetic peptides; mean n = 3; read-out: Enzyme inhibitory activity (IC50) ACE (converted)
Sequence (P12822 34-1310): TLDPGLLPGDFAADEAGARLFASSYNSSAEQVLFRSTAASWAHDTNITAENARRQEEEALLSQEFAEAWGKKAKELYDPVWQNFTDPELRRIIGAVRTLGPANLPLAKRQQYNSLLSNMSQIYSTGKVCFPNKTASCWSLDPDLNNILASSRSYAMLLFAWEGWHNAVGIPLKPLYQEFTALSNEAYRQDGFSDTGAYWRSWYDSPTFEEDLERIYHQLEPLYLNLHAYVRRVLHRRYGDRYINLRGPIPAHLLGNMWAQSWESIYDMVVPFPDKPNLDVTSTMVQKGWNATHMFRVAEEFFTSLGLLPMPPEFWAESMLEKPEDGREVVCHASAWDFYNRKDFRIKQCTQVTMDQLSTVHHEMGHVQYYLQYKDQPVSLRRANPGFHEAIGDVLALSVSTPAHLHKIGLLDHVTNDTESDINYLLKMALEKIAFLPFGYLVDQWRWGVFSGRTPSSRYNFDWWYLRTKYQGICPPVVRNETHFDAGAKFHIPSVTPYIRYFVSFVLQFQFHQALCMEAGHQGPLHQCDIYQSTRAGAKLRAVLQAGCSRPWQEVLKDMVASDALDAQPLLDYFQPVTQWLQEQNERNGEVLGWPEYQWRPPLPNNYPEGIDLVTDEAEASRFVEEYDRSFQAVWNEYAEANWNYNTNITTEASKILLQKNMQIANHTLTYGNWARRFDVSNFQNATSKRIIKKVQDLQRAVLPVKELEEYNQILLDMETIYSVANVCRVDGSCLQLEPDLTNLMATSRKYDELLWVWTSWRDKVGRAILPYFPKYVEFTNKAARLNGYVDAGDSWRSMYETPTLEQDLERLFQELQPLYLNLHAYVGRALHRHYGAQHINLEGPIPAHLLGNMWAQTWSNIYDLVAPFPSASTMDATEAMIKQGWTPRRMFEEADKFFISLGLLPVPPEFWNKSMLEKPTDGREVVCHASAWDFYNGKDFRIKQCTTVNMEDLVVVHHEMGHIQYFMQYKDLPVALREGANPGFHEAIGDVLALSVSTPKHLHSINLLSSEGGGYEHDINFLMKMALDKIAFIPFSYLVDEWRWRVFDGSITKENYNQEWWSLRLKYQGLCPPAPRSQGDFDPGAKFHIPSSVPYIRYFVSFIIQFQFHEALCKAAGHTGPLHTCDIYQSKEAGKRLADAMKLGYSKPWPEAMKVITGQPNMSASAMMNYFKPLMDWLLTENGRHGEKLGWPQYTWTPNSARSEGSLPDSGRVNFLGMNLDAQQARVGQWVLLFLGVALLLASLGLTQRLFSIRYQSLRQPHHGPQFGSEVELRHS
No end group written: not given here.
# IC50 per record follows
The figure you give is taken to be in µM; do not add the unit.

Before answering, review these 3 worked examples.
INSERT INTO measurements (substance, quantity_name, reported_value) VALUES
  ('YIEAVNKVSPRAGQF-OH [YIEAVNKVSPRAGQF]', 'IC50', 5.6),
  ('YINQMPQKSRE [YINQMPQKSRE]', 'IC50', 7.25),
  ('YINQMPQKSREA [YINQMPQKSREA]', 'IC50', 8.6);

--- query ---
Returns the measured IC50 for the input substance. Input: VTGRFAGHPAAQ [VTGRFAGHPAAQ]
22.5
